- Assay System: F876L mutant Androgen Receptor (AR-F876L) (Homo sapiens (Human), UniProt P10275, F877L)
- Sequence (P10275 whole entry F877L): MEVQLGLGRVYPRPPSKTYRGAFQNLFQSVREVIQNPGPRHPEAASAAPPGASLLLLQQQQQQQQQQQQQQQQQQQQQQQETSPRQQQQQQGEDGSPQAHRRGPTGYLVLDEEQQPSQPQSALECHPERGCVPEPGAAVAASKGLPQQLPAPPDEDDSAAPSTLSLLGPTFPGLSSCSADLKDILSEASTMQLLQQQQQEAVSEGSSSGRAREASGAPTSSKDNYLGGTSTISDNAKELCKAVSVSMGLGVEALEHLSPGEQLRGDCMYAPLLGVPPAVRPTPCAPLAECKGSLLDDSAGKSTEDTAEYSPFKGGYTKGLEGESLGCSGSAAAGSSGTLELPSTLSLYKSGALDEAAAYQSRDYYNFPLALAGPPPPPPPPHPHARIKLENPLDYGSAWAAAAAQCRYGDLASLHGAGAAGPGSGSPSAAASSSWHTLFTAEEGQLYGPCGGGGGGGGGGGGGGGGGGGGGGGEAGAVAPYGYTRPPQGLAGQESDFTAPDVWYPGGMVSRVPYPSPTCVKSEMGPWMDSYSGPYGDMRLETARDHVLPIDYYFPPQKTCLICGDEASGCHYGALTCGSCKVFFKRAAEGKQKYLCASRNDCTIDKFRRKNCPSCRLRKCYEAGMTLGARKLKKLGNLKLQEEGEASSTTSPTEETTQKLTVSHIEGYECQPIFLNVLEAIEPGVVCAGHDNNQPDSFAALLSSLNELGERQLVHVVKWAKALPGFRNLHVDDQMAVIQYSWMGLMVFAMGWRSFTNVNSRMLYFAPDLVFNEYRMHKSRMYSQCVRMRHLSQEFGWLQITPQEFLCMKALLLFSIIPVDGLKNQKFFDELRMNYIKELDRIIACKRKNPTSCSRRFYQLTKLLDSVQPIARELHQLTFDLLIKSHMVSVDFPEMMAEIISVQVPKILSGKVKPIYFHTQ
- Experiment Description: LNCaP-AR-F876L ANT reporter assay (antagonist mode)
- Format: cell-based
- Assay Setup: antagonist mode; pIC50 = −Log10(IC50 in Molar); read-out: LNCaP-AR-F876L ANT pIC50 (converted)
Endpoint Name: log10(IC50) (log10 of the value in nM)
Would you kindly interpret these values as log10 of IC50 expressed in nM?

Worked examples follow.
| Molecule | Value Observed |
| --- | --- |
| N#Cc1ncc(N2C(=O)C3(CCC3)N(c3ccc(OC4CCN5CCCC5C4)cc3)C2=S)cc1C(F)(F)F (centres unmarked) [Cpd 156] | 2.25 |
| N#Cc1ncc(N2C(=O)C3(CCC3)N(c3ccc(OC4C5CCC4CNC5)nc3)C2=S)cc1C(F)(F)F (centres unmarked) [Cpd 139] | 2.71 |
| Cn1cc(N2C(=S)N(c3cnc(C#N)c(C(F)(F)F)c3)C(=O)C23CCC3)ccc1=O [Cpd 133] | 2.99 |
| CN1CC[C@H](CNC(=O)c2ccc(N3C(=S)N(c4cnc(C#N)c(C(F)(F)F)c4)C(=O)C34CCC4)cc2)C1 [Cpd 206] | 2.79 |
| N#Cc1ncc(N2C(=O)C3(CCC3)N(c3ccc(OC4CCC(N)CC4)cc3)C2=S)cc1C(F)(F)F (centres unmarked) [Cpd 68] | 1.24 |
| CN1CCOC(c2ccc(N3C(=S)N(c4cnc(C#N)c(C(F)(F)F)c4)C(=O)C34CCC4)cc2)C1 (centres unmarked) [Cpd 241] | 2.20 |
| N#Cc1ncc(N2C(=O)C3(CCC3)N(c3ccc(O)nc3)C2=S)cc1Cl [Cpd 45] | 3.10 |

[Q] What log10(IC50) value was documented for this molecule, CN1CC(Oc2ccc(N3C(=S)N(c4cnc(C#N)c(C(F)(F)F)c4)C(=O)C34CCC4)cc2)C1 [Cpd 84] ?
[A] 1.91

* * *

- Assay System: AR-FL and AR-V7 in 22RV1 cells
- Experiment Description: 22RV1 AR-FL and AR-V7 Transcriptional Reporter Assay
- Type: cell-based
- Assay Setup: 22RV1, in the presence of 0.1 nM R1881; read-out: IC50, antagonist mode
Endpoint Name: IC50 (nM)
Your answer is read as nM, so omit the unit and give the number.

[Q] Entry N#Cc1ncc(N2C(=O)C3(CCC3)N(c3ccc(OC4CCNCC4)nc3)C2=S)cc1C(F)(F)F [Cpd 43] : reported IC50 = ?
[A] 348

* * *

- Assay System: UniProt P10275
- Experiment Description: LNCaP-AR-wt ANT reporter assay (antagonist mode)
- Type: cell-based
- Assay Setup: antagonist mode; maximum % inhibition of R1881 control response over tested concentration range; read-out: LNCaP-AR-wt ANT MAX % Inh
Collected Emax values appear next to each entry.
# number only, unit % dropped from output

[Q] Name the recorded Emax for COc1cc(N2C(=O)C3(CCC3)N(c3ccc4nn(C5CCN(C)CC5)cc4c3)C2=S)cnc1C#N .
[A] 101

[Q] Look at this compound and give its reported Emax. N#Cc1ncc(N2C(=O)C3(CCC3)N(c3ccc(CC4CCC(N)CC4)cc3)C2=S)cc1C(F)(F)F (centres unmarked)
[A] 108

[Q] Query: Emax; subject: N#Cc1ncc(N2C(=O)C3(CCC3)N(c3ccc4ccn(CCO)c4c3)C2=S)cc1C(F)(F)F
[A] 0

[Q] Can you look up the measured Emax of N#Cc1ncc(N2C(=O)C3(CCC3)N(c3ccc(C(=O)NC[C@H]4CCCNC4)c(F)c3)C2=S)cc1C(F)(F)F for me?
[A] 102

[Q] // lookup Emax for CC(=O)N1CCC(n2cc3ccc(N4C(=S)N(c5cnc(C#N)c(C(F)(F)F)c5)C(=O)C45CCC5)cc3n2)CC1
[A] 102

[Q] # Emax lookup, item CN1CCC(Sc2ccc(N3C(=S)N(c4cnc(C#N)c(C(F)(F)F)c4)C(=O)C34CCC4)cc2)CC1
[A] 99.9

[Q] I have this compound here, CN1CCC(c2nc3cc(N4C(=S)N(c5cnc(C#N)c(C(F)(F)F)c5)C(=O)C45CCC5)ccc3[nH]2)CC1 , and I need its recorded Emax.
[A] 95.9

[Q] Which Emax is listed for CN1CC[C@H](CNC(=O)c2ccc(N3C(=S)N(c4cnc(C#N)c(C(F)(F)F)c4)C(=O)C34CCC4)cc2)C1 ?
[A] 101

[Q] State the recorded Emax for this entry: N#Cc1ncc(N2C(=O)C3(CCC3)N(c3ccc4c(ccn4C4CCNCC4)c3)C2=S)cc1C(F)(F)F
[A] 0

[Q] Record request: Emax value, item Cc1cc(N2C(=O)C3(CCC3)N(c3cnc(OC4CCNCC4)nc3)C2=S)cnc1C#N
[A] 0

[Q] Entry under review: N#Cc1ncc(N2C(=O)C3(CCC3)N(c3ccc(CN4CCN(C5CC5)CC4)cc3)C2=S)cc1C(F)(F)F . Reported Emax?
[A] 102

[Q] Please report the recorded Emax for COc1cc(N2C(=O)C3(CCC3)N(c3ccc(CC4CCNCC4)cc3)C2=S)cnc1C#N .
[A] 103

[Q] Give the measured Emax of CN1CCC12CC(Oc1ccc(N3C(=S)N(c4cnc(C#N)c(C(F)(F)F)c4)C(=O)C34CCC4)cn1)C2 (centres unmarked) .
[A] 101

[Q] Look up Emax for this compound: CN1CCC[C@H](CNC(=O)c2ccc(N3C(=S)N(c4cnc(C#N)c(C(F)(F)F)c4)C(=O)C34CCC4)cc2F)C1
[A] 102

[Q] Look at this compound and give its reported Emax. Cc1cc(N2C(=O)C3(CCC3)N(c3cnc(OC4CCN(CCO)CC4)nc3)C2=S)cnc1C#N
[A] 0

[Q] // query Emax value for entry CN1CC[C@@H](Oc2ccc(N3C(=S)N(c4cnc(C#N)c(C(F)(F)F)c4)C(=O)C34CCC4)cc2)C[C@H]1CO (racemic)
[A] 101

* * *

- Assay System: wild-type Androgen Receptor (AR-wt) (Homo sapiens (Human), UniProt P10275)
- Sequence (P10275 whole entry): as the sequence (P10275 whole entry F877L) above, with L877F counted along it
- Experiment Description: LNCaP-AR-wt AG reporter assay (agonist mode)
- Assay type: cell-based
- Assay Setup: agonist mode; pEC50 = −Log10(EC50 in Molar); read-out: LNCaP-AR-wt AG pEC50 (converted)
Endpoint Name: EC50

Below are worked cases with known answers.
| Compound | Assay System | Value Observed |
| --- | --- | --- |
| CN1CCC(Oc2ccc(N3C(=S)N(c4cnc(C#N)c(C(F)(F)F)c4)C(=O)C34CCC4)cn2)CC1 | wild-type Androgen Receptor (AR-wt) (Homo sapiens (Human), UniProt P10275) | > 15.1 µM |
| N#Cc1ncc(N2C(=O)C3(CCC3)N(c3ccc(OC4CCN(CC(F)(F)F)CC4)cc3)C2=S)cc1C(F)(F)F | wild-type Androgen Receptor (AR-wt) (Homo sapiens (Human), UniProt P10275) | > 15.1 µM |
| COc1cc(N2C(=O)C3(CCC3)N(c3ccc4nn(C5CCNCC5)cc4c3)C2=S)cnc1C#N | wild-type Androgen Receptor (AR-wt) (Homo sapiens (Human), UniProt P10275) | > 15.1 µM |
| Cn1cc(N2C(=S)N(c3cnc(C#N)c(C(F)(F)F)c3)C(=O)C23CCC3)ccc1=O | wild-type Androgen Receptor (AR-wt) (Homo sapiens (Human), UniProt P10275) | > 15.1 µM |
| Cc1cc(N2C(=O)C3(CCC3)N(c3ccc(OC4CCSCC4)nc3)C2=S)cnc1C#N | wild-type Androgen Receptor (AR-wt) (Homo sapiens (Human), UniProt P10275) | > 15.1 µM |
| N#Cc1ncc(N2C(=O)C3(CCC3)N(c3ccc(OC4CCNCC4)nc3)C2=S)cc1C(F)(F)F | wild-type Androgen Receptor (AR-wt) (Homo sapiens (Human), UniProt P10275) | > 15.1 µM |

We now examine a further compound.
[Q] Quick check: EC50 of N#Cc1ncc(N2C(=O)C3(CCC3)N(c3ccc(OCCN4CCC5(CCOC5)CC4)cc3)C2=S)cc1C(F)(F)F ?
[A] > 15.1 µM

* * *

- Assay System: wild-type Androgen Receptor (AR-wt) (Homo sapiens (Human), UniProt P10275)
- Experiment Description: LNCaP-AR-wt AG reporter assay (agonist mode)
- Format: cell-based
- Assay Setup: agonist mode; maximum % stimulation over tested concentration range; read-out: LNCaP-AR-wt AG MAX % Stim
# Emax annotations
Value expressed in %; do not type the unit.

| Compound | Emax [%] |
| --- | --- |
| CN1CCN(Cc2ccc(N3C(=S)N(c4cnc(C#N)c(Cl)c4)C(=O)C34CCC4)cc2)CC1 [Cpd 219] | 0.3 |
| CN1CC[C@H](CNC(=O)c2ccc(N3C(=S)N(c4cnc(C#N)c(C(F)(F)F)c4)C(=O)C34CCC4)cc2F)C1 [Cpd 218] | 0 |
| CN1CC[C@@H](CNC(=O)c2ccc(N3C(=S)N(c4cnc(C#N)c(C(F)(F)F)c4)C(=O)C34CCC4)cc2F)C1 [Cpd 205] | -0.1 |
| N#Cc1ncc(N2C(=O)C3(CCC3)N(c3ccc(OC4CCNC(=O)C4)cc3)C2=S)cc1C(F)(F)F (racemic) [Cpd 195] | 0 |
| CN1CC[C@@H](CNC(=O)c2ccc(N3C(=S)N(c4cnc(C#N)c(C(F)(F)F)c4)C(=O)C34CCC4)cc2)C1 [Cpd 187] | 0.3 |

[Q] Would you kindly share the measured Emax for N#Cc1ncc(N2C(=O)C3(CCC3)N(c3ccc(C(=O)NCC4CCNCC4)c(F)c3)C2=S)cc1C(F)(F)F [Cpd 221] ?
[A] -0.1

[Q] Consider the compound CN1CCC[C@@H](CNC(=O)c2ccc(N3C(=S)N(c4cnc(C#N)c(C(F)(F)F)c4)C(=O)C34CCC4)cc2F)C1 [Cpd 200] and give its measured Emax.
[A] 0.4

[Q] Using the record for CN1CCC(Sc2ccc(N3C(=S)N(c4cnc(C#N)c(C(F)(F)F)c4)C(=O)C34CCC4)cc2)CC1 [Cpd 242] , report its Emax.
[A] 0.1

[Q] Record request: Emax value, item CN1CC[C@@H](Oc2ccc(N3C(=S)N(c4cnc(C#N)c(C(F)(F)F)c4)C(=O)C34CCC4)cc2)C[C@H]1CO (racemic) [Cpd 226]
[A] 0.4

[Q] GET /values?readout=Emax&item= COc1cc(N2C(=O)C3(CCC3)N(c3ccc(CC4CCN(C)CC4)cc3)C2=S)cnc1C#N [Cpd 239]
[A] -0.1

[Q] For CN1CCC(NC(=O)c2ccc(N3C(=S)N(c4cnc(C#N)c(C(F)(F)F)c4)C(=O)C34CCC4)cc2)C1 (stereo not drawn) [Cpd 192] , what is its reported Emax?
[A] 0

[Q] What value of Emax has been reported for the following compound? N#Cc1ncc(N2C(=O)C3(CCC3)N(c3ccc(CN4CCN(CCO)CC4)cc3)C2=S)cc1C(F)(F)F [Cpd 227]
[A] -0.2

[Q] Recorded Emax for CN1CCC[C@@H](CNC(=O)c2ccc(N3C(=S)N(c4cnc(C#N)c(C(F)(F)F)c4)C(=O)C34CCC4)cc2)C1 [Cpd 185] , please?
[A] 0.2

[Q] // Emax lookup, key: N#Cc1ncc(N2C(=O)C3(CCC3)N(c3ccc(O[C@H]4CCN[C@H](CO)C4)cc3)C2=S)cc1C(F)(F)F (racemic) [Cpd 222]
[A] 2.3

[Q] Which measured Emax value corresponds to CN1CCC(CNC(=O)c2ccc(N3C(=S)N(c4cnc(C#N)c(C(F)(F)F)c4)C(=O)C34CCC4)cc2F)CC1 [Cpd 201] ?
[A] -0.3

[Q] Value lookup for Emax; key = N#Cc1ncc(N2C(=O)C3(CCC3)N(c3ccc(C(=O)NC[C@@H]4CCCNC4)c(F)c3)C2=S)cc1C(F)(F)F [Cpd 202]
[A] -0.1

[Q] For the compound COc1cc(N2C(=O)C3(CCC3)N(c3ccc4c(cnn4C4CCN(C(C)=O)CC4)c3)C2=S)cnc1C#N [Cpd 212] , what Emax is on record?
[A] 0.2

[Q] Please report the recorded Emax for CN1CCC(Cc2ccc(N3C(=S)N(c4cnc(C#N)c(C(F)(F)F)c4)C(=O)C34CCC4)cc2)CC1 [Cpd 237] .
[A] 0.4

[Q] Reported Emax, compound CN1CC[C@H](CNC(=O)c2ccc(N3C(=S)N(c4cnc(C#N)c(C(F)(F)F)c4)C(=O)C34CCC4)cc2)C1 [Cpd 206] : ____
[A] 0.1

[Q] Requested read-out: Emax. Entry: Cn1c(CCO)nc2cc(N3C(=S)N(c4cnc(C#N)c(C(F)(F)F)c4)C(=O)C34CCC4)ccc21 [Cpd 255]
[A] 0.4

[Q] Tell me the measured Emax of COc1cc(N2C(=O)C3(CCC3)N(c3ccc4nn(C5CCN(C)CC5)cc4c3)C2=S)cnc1C#N [Cpd 215] , please.
[A] 0

[Q] Which Emax value belongs to Cc1cc(N2C(=O)C3(CCC3)N(c3ccc(CC4CCNCC4)cc3)C2=S)cnc1C#N [Cpd 235] ?
[A] 0.2

[Q] # lookup: Emax of N#Cc1ncc(N2C(=O)C3(CCC3)N(c3ccc(SC4CCNCC4)cc3)C2=S)cc1C(F)(F)F [Cpd 240]
[A] 1

[Q] Record request: Emax value, item Cc1nc2cc(N3C(=S)N(c4cnc(C#N)c(C(F)(F)F)c4)C(=O)C34CCC4)ccc2[nH]1 [Cpd 245]
[A] 0
